The origin of these recorded values is patent US20190202907A1.

# Tested on: T1, human ST2L (human, UniProt Q01638 19-328, limits assumed)
# T1 construct: also called IL-1R4; IL-33Ra
# T1 sequence (looked up): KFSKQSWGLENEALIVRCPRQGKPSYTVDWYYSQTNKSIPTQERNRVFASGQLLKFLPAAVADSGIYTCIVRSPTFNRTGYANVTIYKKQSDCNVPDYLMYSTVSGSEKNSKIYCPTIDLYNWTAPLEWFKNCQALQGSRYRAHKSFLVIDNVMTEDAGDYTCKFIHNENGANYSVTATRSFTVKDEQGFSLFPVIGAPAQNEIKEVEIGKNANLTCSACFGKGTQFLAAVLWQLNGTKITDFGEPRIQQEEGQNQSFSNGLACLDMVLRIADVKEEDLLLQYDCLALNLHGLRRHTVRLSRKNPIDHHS
# Assay procedure: affinity table; method not stated
Readout label: kon
Returns: string containing the number followed by the unit.

# input Consider the binder STLM210 (antibody, from another filing, V domains shown) VH: EVQLLESGGGLVQPGGSLRLSCAASGFTFSDDAMIWVRQAPGKGLEWVSYIGGNGGTTYYADSVKGRFTISRDNSKNTLYLQMNSLRAEDTAVYYCARDPWSTEGSFFVLDYWGQGTLVTVSS VL: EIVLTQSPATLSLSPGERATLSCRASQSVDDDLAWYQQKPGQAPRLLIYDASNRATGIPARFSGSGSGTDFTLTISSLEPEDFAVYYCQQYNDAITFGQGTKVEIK and give its measured kon.
# output 1.21e+07 M⁻¹ s⁻¹

# input Consider the binder STLM107 (antibody, from another filing, V domains shown) VH: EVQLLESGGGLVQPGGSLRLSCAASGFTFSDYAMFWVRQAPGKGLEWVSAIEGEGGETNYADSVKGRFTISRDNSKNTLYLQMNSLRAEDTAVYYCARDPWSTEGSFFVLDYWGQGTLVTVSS VL: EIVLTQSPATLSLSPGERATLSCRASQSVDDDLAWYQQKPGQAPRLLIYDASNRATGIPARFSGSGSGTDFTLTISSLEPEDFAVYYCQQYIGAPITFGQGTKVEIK and give its measured kon.
# output 2.9e+07 M⁻¹ s⁻¹

# input Consider the binder STLM124 (antibody, from another filing, V domains shown) VH: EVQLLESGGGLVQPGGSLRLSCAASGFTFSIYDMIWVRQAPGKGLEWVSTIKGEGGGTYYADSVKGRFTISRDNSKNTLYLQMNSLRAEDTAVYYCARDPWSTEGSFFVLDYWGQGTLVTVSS VL: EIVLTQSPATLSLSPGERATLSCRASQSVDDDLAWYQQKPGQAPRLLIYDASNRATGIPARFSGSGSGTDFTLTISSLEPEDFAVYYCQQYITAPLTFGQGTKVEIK and give its measured kon.
# output 1.65e+07 M⁻¹ s⁻¹
